target: human ether-à-go-go-related gene (hERG) potassium channel (human, UniProt Q12809); test: primary screen, population patch clamp on CHO cells stably expressing hERG; higher = less effect of the substance;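 note: peak tail current of the secondary pulse compared with the same well before compound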
Sequence (Q12809 whole entry, looked up): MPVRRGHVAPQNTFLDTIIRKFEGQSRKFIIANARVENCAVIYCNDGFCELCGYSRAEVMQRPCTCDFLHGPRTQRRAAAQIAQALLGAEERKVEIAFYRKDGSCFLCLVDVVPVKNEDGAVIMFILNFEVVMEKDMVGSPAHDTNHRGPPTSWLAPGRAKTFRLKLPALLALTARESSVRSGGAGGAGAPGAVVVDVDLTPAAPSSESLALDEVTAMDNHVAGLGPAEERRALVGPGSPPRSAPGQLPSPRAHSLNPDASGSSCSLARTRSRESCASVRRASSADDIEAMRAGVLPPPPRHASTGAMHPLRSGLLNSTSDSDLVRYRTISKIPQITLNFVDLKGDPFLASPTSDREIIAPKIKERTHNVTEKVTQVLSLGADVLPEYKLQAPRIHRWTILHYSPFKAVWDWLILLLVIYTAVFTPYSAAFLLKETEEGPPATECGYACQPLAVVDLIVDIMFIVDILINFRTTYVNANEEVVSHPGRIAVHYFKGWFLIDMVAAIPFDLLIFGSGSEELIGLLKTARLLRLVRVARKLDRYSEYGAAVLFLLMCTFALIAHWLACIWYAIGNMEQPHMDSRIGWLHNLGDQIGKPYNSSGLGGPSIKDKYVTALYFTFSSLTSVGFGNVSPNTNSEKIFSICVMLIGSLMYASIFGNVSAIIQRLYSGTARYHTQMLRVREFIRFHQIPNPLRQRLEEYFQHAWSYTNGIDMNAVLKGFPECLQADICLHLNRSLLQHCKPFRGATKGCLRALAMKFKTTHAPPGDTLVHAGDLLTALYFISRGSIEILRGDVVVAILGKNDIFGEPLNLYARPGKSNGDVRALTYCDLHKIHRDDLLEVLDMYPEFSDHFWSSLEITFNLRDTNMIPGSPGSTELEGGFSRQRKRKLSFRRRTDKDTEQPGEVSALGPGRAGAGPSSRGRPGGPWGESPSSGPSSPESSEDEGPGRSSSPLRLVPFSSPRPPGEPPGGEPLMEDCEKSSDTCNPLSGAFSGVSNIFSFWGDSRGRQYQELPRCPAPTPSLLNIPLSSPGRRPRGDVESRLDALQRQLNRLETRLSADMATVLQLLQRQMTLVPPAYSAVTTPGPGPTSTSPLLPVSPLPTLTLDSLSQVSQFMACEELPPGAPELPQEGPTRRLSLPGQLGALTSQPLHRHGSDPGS
Hit rate of the full screen: of about 310,000 compounds, about 14,000 (4.5%) showed an effect of 50% or more. The effect is printed as a negative number. For the sample, strong results were picked, then their nearest neighbours and some compounds at random.
MEASURE: hERG current change (%, negative = inhibition) at 10uM (%)

[[record]]
compound = "Cc1cc(C(=O)CSc2ncccn2)c(C)n1-c1cccc(F)c1"
quantitative_readout = -5.48

[[record]]
compound = "O=C(NN1C(=O)c2ccccc2NC1c1cccnc1)c1ccc([N+](=O)[O-])cc1 (stereo not shown)"
quantitative_readout = -37.5

[[record]]
compound = "CCCOc1ccc(C(=O)NNC(=S)NC(=O)c2ccccc2)cc1"
quantitative_readout = 23.4

[[record]]
compound = "O=C(CNC(=O)c1ccc(Cl)cc1Cl)OCN1C(=O)c2ccccc2C1=O"
quantitative_readout = 3.68

[[record]]
compound = "O=C(Nc1ccccn1)C(F)(F)C(F)(F)C(F)(F)C(F)(F)C(=O)Nc1ccccn1"
quantitative_readout = -18

[[record]]
compound = "Cc1cc(C(=O)CSc2nc(N)cc(N)n2)c(C)n1-c1cccc(C(F)(F)F)c1"
quantitative_readout = -64.4

[[record]]
compound = "O=C(COC(=O)c1cc(=O)[nH]c2ccccc12)Nc1ccc(Cl)cn1"
quantitative_readout = 6.92

[[record]]
compound = "CC1(/[N+]([O-])=C/c2ccccc2F)CCCCC1=O (stereo not shown)"
quantitative_readout = 25.2

[[record]]
compound = "Cc1cc(C(=O)CSc2nc(N)cc(N)n2)c(C)n1-c1cccc(F)c1"
quantitative_readout = -14.2

[[record]]
compound = "COc1cc(CNc2cc(C)ccc2C)cc(OC)c1OC"
quantitative_readout = -4.46


###

biological target: human ether-à-go-go-related gene (hERG) potassium channel (human, UniProt Q12809); assay: primary screen, population patch clamp on CHO cells stably expressing hERG; higher = less effect of the substance;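 note: peak tail current of the secondary pulse compared with the same well before compound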
The campaign covered roughly 310,000 compounds. About 14,000 (4.5%) showed an effect of 50% or more. Effects have a minus sign here. This excerpt belongs to a sample that is enriched for strong results.
Catalogue of hERG current change (%, negative = inhibition) at 10uM readings, one per entry.
MEASURE: hERG current change (%, negative = inhibition) at 10uM (%)

[[record]]
smiles = "O=C(CNC(=O)N1CC(=O)Nc2ccccc21)Nc1nccs1"
display_unit = "%"
quantitative_readout = 12

[[record]]
smiles = "O=C(NCCCN=C1NS(=O)(=O)c2ccccc21)c1ccco1"
display_unit = "%"
quantitative_readout = -10

[[record]]
smiles = "CCn1c(=O)c2sccc2n2c(CCCC(=O)NCCc3ccc(S(N)(=O)=O)cc3)nnc12"
display_unit = "%"
quantitative_readout = -4.96

[[record]]
smiles = "Cc1ccccc1-c1nc(P(=O)(c2ccccc2)c2ccccc2)c(N2CCOCC2)o1"
display_unit = "%"
quantitative_readout = -19.5

[[record]]
smiles = "CC(=O)Nc1sc2c(c1CN1CCCC1)CCCC2"
display_unit = "%"
quantitative_readout = 7.34


###

target: human ether-à-go-go-related gene (hERG) potassium channel (human, UniProt Q12809); experiment: primary screen, population patch clamp on CHO cells stably expressing hERG; higher = less effect of the substance;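 note: peak tail current of the secondary pulse compared with the same well before compound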
In all, about 310,000 compounds went through this assay and about 14,000 (4.5%) showed an effect of 50% or more. The effect is printed as a negative number. This excerpt belongs to a sample that is enriched for strong results.
Assign 1 (yes) whenever hERG current change (%, negative = inhibition) at 10uM does not fall below -50%; assign 0 (no) whenever it does.

[[record]]
molecule = "CCC1CCCCN1CCCNC(=O)CNC(=O)c1nn(-c2ccc(OC)cc2)c(=O)c2ccccc12 (stereo not shown)"
target_under_test = "human ether-à-go-go-related gene (hERG) potassium channel (human, UniProt Q12809)"
class_assignment = "1 (yes)"

[[record]]
molecule = "CCCOc1ccccc1N/C(N)=N/c1nc(C)cc(C)n1"
target_under_test = "human ether-à-go-go-related gene (hERG) potassium channel (human, UniProt Q12809)"
class_assignment = "0 (no)"

[[record]]
molecule = "COc1cc(/C=C/CN2CCN(CCC(C)C)C(CCO)C2)ccc1O (stereo not shown)"
target_under_test = "human ether-à-go-go-related gene (hERG) potassium channel (human, UniProt Q12809)"
class_assignment = "1 (yes)"

[[record]]
molecule = "CCOc1ccccc1CN1CCN(C/C=C/c2ccc(OC)cc2)CC1CCO (stereo not shown)"
target_under_test = "human ether-à-go-go-related gene (hERG) potassium channel (human, UniProt Q12809)"
class_assignment = "0 (no)"

[[record]]
molecule = "COc1ccccc1/C=C/CN1CCN(Cc2ccc(C)o2)C(CCO)C1 (stereo not shown)"
target_under_test = "human ether-à-go-go-related gene (hERG) potassium channel (human, UniProt Q12809)"
class_assignment = "1 (yes)"

[[record]]
molecule = "COC(=O)c1ccc(CN2CCN(CC(C)C)C(CCO)C2)cc1 (stereo not shown)"
target_under_test = "human ether-à-go-go-related gene (hERG) potassium channel (human, UniProt Q12809)"
class_assignment = "1 (yes)"

[[record]]
molecule = "CCOc1ccccc1CN1CCN(Cc2ccc(C)o2)C(CCO)C1 (stereo not shown)"
target_under_test = "human ether-à-go-go-related gene (hERG) potassium channel (human, UniProt Q12809)"
class_assignment = "1 (yes)"

[[record]]
molecule = "Cc1ccc(CN2CCN(C/C=C/c3ccc(F)cc3)CC2CCO)o1 (stereo not shown)"
target_under_test = "human ether-à-go-go-related gene (hERG) potassium channel (human, UniProt Q12809)"
class_assignment = "0 (no)"

[[record]]
molecule = "COc1ccc(/C=C/CN2CCN(CC(C)C)C(CCO)C2)cc1 (stereo not shown)"
target_under_test = "human ether-à-go-go-related gene (hERG) potassium channel (human, UniProt Q12809)"
class_assignment = "0 (no)"


###

target: human ether-à-go-go-related gene (hERG) potassium channel (human, UniProt Q12809); assay: primary screen, population patch clamp on CHO cells stably expressing hERG; higher = less effect of the substance;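 note: peak tail current of the secondary pulse compared with the same well before compound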
The whole screen tested about 310,000 compounds, of which about 14,000 (4.5%) showed an effect of 50% or more. Effects have a minus sign here. The entries come from a sample that favours strong results as a whole.
Consider the following compounds and their measured hERG current change (%, negative = inhibition) at 10uM readings.
MEASURE: hERG current change (%, negative = inhibition) at 10uM

[[record]]
compound = "Cc1ccc(S(=O)(=O)CC(=O)Nc2ncc([N+](=O)[O-])s2)cc1"
result = "21.8%"

[[record]]
compound = "Cc1ccccc1NC(=O)NCCCN1CCN(C)CC1"
result = "28.1%"

[[record]]
compound = "CCCN1CCN(C(=O)Nc2ccc(OCC)cc2)CC1"
result = "-1.93%"

[[record]]
compound = "O=C(NCCN1CCCCC1)Nc1ccccc1"
result = "-23.2%"

[[record]]
compound = "COc1ccccc1NC(=O)NCCN1CCN(c2cccc(Cl)c2)CC1"
result = "-9.6%"

[[record]]
compound = "O=C(CN1C(=O)NC(c2ccccc2)(c2ccccc2)C1=O)N1CCN(c2ccc(F)cc2)CC1"
result = "-68.4%"

[[record]]
compound = "COc1cc(C(=O)Nc2ccc3c(c2)OCO3)ccc1-n1cnnn1"
result = "-15.6%"

[[record]]
compound = "COc1ccc(N2CCN(C(=O)CN3C(=O)C4CC=CCC4C3=O)CC2)cc1 (stereo not drawn)"
result = "12.3%"

[[record]]
compound = "O=C(CN1C(=O)C2CCCCC2C1=O)N1CCN(c2ccc(F)cc2)CC1 (stereo not drawn)"
result = "-12.2%"

[[record]]
compound = "O=C(Nn1cnnc1)c1ccc(Br)s1"
result = "13.9%"

[[record]]
compound = "C=CCn1c(C)cc(-c2csc(NC(=O)CCc3nc4ccccc4c(=O)[nH]3)n2)c1C"
result = "-23.8%"

[[record]]
compound = "CN(C)c1ccc(CN2CCCCCC2)cc1"
result = "-6.11%"

[[record]]
compound = "Nc1ccc2nc3c(=O)n(C4CCCCC4)c(=O)[nH]c3nc2c1"
result = "-0.914%"

[[record]]
compound = "CC1(C)NC(=O)N(CC(=O)N2CCN(c3ccc([N+](=O)[O-])cc3)CC2)C1=O"
result = "-66.1%"

[[record]]
compound = "CC1(C)NC(=O)N(CC(=O)N2CCN(c3cccc(C(F)(F)F)c3)CC2)C1=O"
result = "6.26%"

[[record]]
compound = "N#CCSc1nnc(C2CCCCC2)n1-c1ccccc1"
result = "4.45%"

[[record]]
compound = "C/C(=N\\NC(=O)c1nnn(-c2nonc2N)c1CSc1ccc(C)cc1)c1ccco1"
result = "-9.04%"

[[record]]
compound = "O=C(CN1C(=O)NC(c2ccccc2)(c2ccccc2)C1=O)N1CCN(c2ccccc2F)CC1"
result = "-17.4%"

[[record]]
compound = "CCOCCOC(=O)c1ccc(-n2cnc(C)n2)nc1"
result = "16.3%"

[[record]]
compound = "C=CCN(c1ccccc1)S(=O)(=O)c1cccc(C(=O)NNC(=O)c2ccncc2)c1"
result = "-7.43%"

[[record]]
compound = "CC(C(=O)N1CCOCC1)c1ccc([N+](=O)[O-])cc1 (stereo not drawn)"
result = "9.94%"

